Reference source for all entries: the supplement of paper PMC13380429

Each item that follows carries a reported cell viability.
- System: Calu-3
- assayDetails: cell viability relative to DMSO; higher = less toxic
- assaySetup: 72 h; 100 nM
Report the value in % with no unit label.

NC[C@@](O)(c1ccc(Cl)cc1)c1ccc(-c2cn[nH]c2)cc1; 119
NS(=O)(=O)c1cc2c(cc1Cl)N=C(CSCc1ccccc1)NS2(=O)=O [benzthiazide]; 101
CC(=O)Nc1ccc(OC[C@](C)(O)C(=O)Nc2ccc([N+](=O)[O-])c(C(F)(F)F)c2)cc1 [andarine]; 90.2
CC(C)(Oc1ccc(Cl)cc1)C(=O)OCCOC(=O)c1cccnc1 [etofibrate]; 99.1
c1ccc(C(NCCNC(c2ccccc2)c2ccccc2)c2ccccc2)cc1 [AMN-082]; 96.9

*Q* For the compound shown here, NC(=O)c1[nH]cnc1O [SM-108] , give the reported cell viability.
*A* 101

*Q* Let us now turn to c1ccc(CNCc2ccc(CN3CCCNCCNCCCNCC3)cc2)nc1 [AMD-3465]
*A* 94.1

*Q* And then Cc1ccc(Cl)cc1N(CC(=O)Nc1c(F)cccc1F)S(C)(=O)=O [FPH1-(BRD-6125)] , what is it?
*A* 97.8

*Q* Next: CNC[C@H](O)[C@@H](O)[C@H](O)[C@H](O)CO [meglumine]
*A* 99.4

*Q* Would you mind doing COc1cc2c(cc1OC)C(c1ccc(N)cc1)=NNC(=O)C2 [CFM-2] as well?
*A* 98.3

*Q* // next record C/C=C1\NC(=O)[C@H]2CSSCC/C=C/[C@H](CC(=O)N[C@H](C(C)C)C(=O)N2)OC(=O)[C@H](C(C)C)NC1=O [romidepsin]
*A* 8.7

*Q* And what about the compound COc1ccccc1OCC(O)CO (centres undefined) [guaifenesin] ?
*A* 101

----------
compounds and their reported cell viability
- Tested on: HepG2
- assayDetails: cell viability relative to DMSO; higher = less toxic
- assaySetup: 72 h; 10000 nM
Output spec: scalar in %, unitless text.

*Q* For HepG2, provide cell viability of "O=C(O)c1cnn(-c2nc3cc(OC(F)(F)F)c(Cl)cc3[nH]2)c1" please.
*A* 88.1

*Q* Would you mind doing "CCCOc1ccc(Br)cc1-c1cc(-c2ccc(Cl)cc2)[nH]c1-c1ccncc1" as well?
*A* 65.9

*Q* Likewise for NCCCCCc1c[nH]cn1 [impentamine] ?
*A* 101

*Q* Entry to check: "Cc1ccc(CC2(O)CCN(CCOc3ccc(O)cc3)CC2)cc1"
*A* 84.6

*Q* Next record, please: CC(C)C[C@@H](NC(=O)[C@H](Cc1ccccc1)NC(=O)CNC(=O)[C@@H](C)NC(=O)[C@@H](N)Cc1ccc(O)cc1)C(=O)O [BW-180C]
*A* 100

----------
- System: U2OS
- assayDetails: relative viability EC50 (midpoint between 100% and the lowest measured viability); higher = less toxic
- assaySetup: 72 h
# Lookup of reported relative viability EC50 keyed by entry

Examples with their reported relative viability EC50 follow.
Cc1ccc(Cl)cc1N(CC(=O)Nc1c(F)cccc1F)S(C)(=O)=O; > 10 µM
CCCN1C[C@H](CSC)C[C@@H]2c3cccc4[nH]cc(c34)C[C@H]21 [pergolide]; > 10 µM
O=C(NC1CCN(CCCCC2(C(=O)NCC(F)(F)F)c3ccccc3-c3ccccc32)CC1)c1ccccc1-c1ccc(C(F)(F)F)cc1 [lomitapide]; 3.46 µM
CCCCCCCCCCCCc1ccc(S(=O)(=O)Nc2nncs2)cc1; > 10 µM

*Q* What does the record list as relative viability EC50 for "COc1ccccc1CC(=N)N1C[C@@H]2C(=O)CCC(c3ccccc3)(c3ccccc3)[C@@H]2C1" ?
*A* > 10 µM

*Q* One more molecule: "CCCOc1ccc2[nH]c(NC(=O)OC)nc2c1"
*A* 3.4 µM

*Q* Please answer likewise for "C=CCN1CC[C@]23c4c5ccc(O)c4O[C@H]2[C@@H](OCCOCCOCCOCCOCCOCCOCCOC)CC[C@@]3(O)[C@H]1C5"
*A* > 10 µM

*Q* Can you check "CCCOc1ccc(Br)cc1-c1cc(-c2ccc(Cl)cc2)[nH]c1-c1ccncc1" next?
*A* > 10 µM

*Q* Now try "N=C(N)Nc1ccc2[nH]c3c(c2c1)C[C@@]1(O)[C@H]2Cc4ccc(O)c5c4[C@@]1(CCN2CC1CC1)[C@H]3O5" .
*A* > 10 µM

*Q* Repeat for the following molecule: CCn1c(O)nnc1-c1ccc(Cl)cc1 [5-(4chlorophenyl)-4-ethyl-2,4-dihydro-3H-1,2,4-triazol-3-one]
*A* > 10 µM

*Q* Then this molecule: "COc1cc(C(=O)c2c(C)oc3c(O)c(OC)ccc23)cc(OC)c1OC"
*A* 0.0073 µM

*Q* Another: "CC[C@H](C)[C@@H]([C@@H](CC(=O)N1CCC[C@H]1[C@H](OC)[C@@H](C)C(=O)N[C@@H](Cc1ccccc1)c1nccs1)OC)N(C)C(=O)[C@@H](NC(=O)[C@H](C(C)C)N(C)C)C(C)C"
*A* < 0.001 µM

*Q* Could you do the same for "OCCN1CCN(CCCN2c3ccccc3Sc3ccc(C(F)(F)F)cc32)CC1" , please?
*A* > 10 µM
